Cited source for all entries: PubChem BioAssay (NCI)

Collected TGI values appear next to each entry.
- System: SNB-75 CNS
- assaySummary: NCI tumour cell line growth inhibition, 48 h
Give just the numeric value; µM need not be written.

Worked examples, 2 compounds total:
INSERT INTO results (compound, measurementunit, val) VALUES
  ('CC(=O)NC(CCCCN(Cc1ccccc1)C(=O)N(CCCl)N=O)C(=O)NCc1ccccc1 (configuration not stated)', 'µM', 63.8),
  ('O=S(=O)(Nc1ccc2ccccc2c1)c1ccc(-c2cnc(C3CC3)o2)cc1', 'µM', 6.07);

Ask: Look at this compound and give its reported TGI. CC(C)(C)c1ccc(O)c(CN(Cc2cc(C(C)(C)C)ccc2O)C2CCCCC2)c1
Result: 51.3

Ask: So what does the record say about TGI for CCCN1C(=O)/C(=C/c2ccc(O)cc2)SC1=Nc1ccc(OC)cc1 ?
Result: 46.1

Ask: Endpoint output: TGI of O=C(Nc1cccc(Cl)c1)c1cc(N=Nc2ccc([N+](=O)[O-])cc2Cl)ccc1O . Value?
Result: 20.5

Ask: Query: TGI; subject: O=C(Nc1ccc2c(c1)OCO2)C(=O)c1c[nH]c2cc(F)ccc12
Result: 12.1

Ask: Would you kindly share the measured TGI for Cc1cc(NNC(=O)c2ccccc2O)nc(Nc2nc3ccccc3o2)n1 ?
Result: 17.4

Ask: Would you kindly share the measured TGI for COc1ccc2c(-c3ccc(O)cc3)c(Oc3ccc(Cl)cc3)c(=O)oc2c1 ?
Result: 33.8

Ask: Which value of TGI has been reported for C=C1CCC2C3(C)COC(c4ccc(Cl)cc4)OC3CCC2(C)C1/C=C/C1=CCOC1=O (configuration not stated) in the records?
Result: 41.5

----------
- Test system: KM12 colon
- assaySummary: NCI tumour cell line growth inhibition, 48 h
Listed compounds paired with reported TGI

INSERT INTO results (compound, target, attributemeasured, val) VALUES
  ('CCOC(=O)c1[nH]c2nc(SC)nc(Nc3ccccc3Cl)c2c1N', 'KM12 colon', 'TGI', '> 100 µM'),
  ('COC(=O)c1cc(C)n(CN(Cc2ccccc2)Cn2nc(C(=O)OC)cc2C)n1', 'KM12 colon', 'TGI', '> 100 µM'),
  ('COc1ccc(CNc2cnc3cc(N)cc(N)c3n2)cc1', 'KM12 colon', 'TGI', '67.6 µM'),
  ('O=[N+]([O-])c1nccn1CCCNCCCn1ccnc1[N+](=O)[O-]', 'KM12 colon', 'TGI', '> 100 µM'),
  ('CCCCN=C1OCc2[nH][nH]c(=O)c21', 'KM12 colon', 'TGI', '> 100 µM'),
  ('COc1ncnc2c1cnn2Cc1cn(CCCCO)nn1', 'KM12 colon', 'TGI', '> 100 µM');

Ask: Please give the measured TGI for this compound: Nc1ccccc1N=Nc1c(S(=O)(=O)O)cc2cc(S(=O)(=O)O)cc(O)c2c1O
Result: > 100 µM

Ask: // returns reported TGI for input O=C(NNC(=S)NCc1ccccc1)C12CC3CC(CC(C3)C1)C2
Result: > 100 µM

Ask: I am curious: what TGI value has been reported for CSc1nc(NC2OC(COC(C)=O)C(OC(C)=O)C(OC(C)=O)C2OC(C)=O)c(N=C(C)C(C)=O)c(=O)n1C (configuration not stated) ?
Result: > 100 µM

Ask: Would you kindly share the measured TGI for Cc1ccc(-c2cc(-c3c(C)nn(C)c(=O)c3N)[nH]n2)cc1 ?
Result: > 100 µM

Ask: What measured TGI goes with C[C@@H]1CC[C@@H]2[C@@H](C)C[C@H]3[C@@H]4C(C)(C)OC(=O)[C@]4(C)C(=O)[C@@]23C1=O ?
Result: > 100 µM

Ask: # input compound: CC(=O)ON(C(C)=O)C1C(COC(c2ccccc2)(c2ccccc2)c2ccccc2)OC2OC3(CCCC3)OC21 (configuration not stated) ; wanted: its TGI
Result: > 100 µM

Ask: Could you share which TGI value was measured for OC(c1ccccc1)C(F)(F)c1nc2ccccc2o1 (configuration not stated) ?
Result: > 100 µM

Ask: Fill in: TGI of CN(C)c1ccc(C2ON=C(c3ccccc3)N2C23CC4CC(CC(C4)C2)C3)cc1 (configuration not stated) is ___
Result: > 10 µM

Ask: Looking for the measured TGI of C[N+](C)([O-])Cc1cc(-c2ccccc2)ccc1O , can you help?
Result: > 100 µM

Ask: Param item = COC(=O)[C@@H]1Cc2cc(O)c(O)cc2C2(CCN(C)CC2)O1 ; retrieve measured TGI.
Result: > 10 µM

Ask: Give the measured TGI of Oc1ccc(-c2cn3cc(C(F)(F)F)ccc3n2)cc1 .
Result: > 100 µM

Ask: Quick one: TGI of CC(NC(NC(C)C12CC3CC(CC(C3)C1)C2)=C(C(Cl)=C(Cl)Cl)[N+](=O)[O-])C12CC3CC(CC(C3)C1)C2 (configuration not stated) ?
Result: > 100 µM

Ask: Sample O=[As](O)(O)c1ccc2nc3cc([As](=O)(O)O)ccc3nc2c1 — what was its TGI?
Result: > 100 µM
